# Test System: HIV Env of isolate CAAN5342.A2 (clade B) (HIV)
# Test Summary: cell-based or functional assay

Binder	Readout Qualifier	IC50 (µg/ml) with constrains / µg/mL
ePGDM9 (antibody, V domains shown) VH: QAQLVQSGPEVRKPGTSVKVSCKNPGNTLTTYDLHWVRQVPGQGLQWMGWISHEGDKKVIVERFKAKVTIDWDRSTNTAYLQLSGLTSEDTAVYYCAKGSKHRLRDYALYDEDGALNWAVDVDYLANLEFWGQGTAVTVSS VL: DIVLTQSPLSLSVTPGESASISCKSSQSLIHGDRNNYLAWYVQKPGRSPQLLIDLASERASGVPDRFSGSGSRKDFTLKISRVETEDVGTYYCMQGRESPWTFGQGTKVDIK	=	17.5
ePGDM13 (antibody, V domains shown) VH: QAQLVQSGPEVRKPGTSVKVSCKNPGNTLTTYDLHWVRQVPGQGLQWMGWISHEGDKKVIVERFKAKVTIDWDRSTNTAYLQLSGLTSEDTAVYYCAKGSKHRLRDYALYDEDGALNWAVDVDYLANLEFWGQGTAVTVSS VL: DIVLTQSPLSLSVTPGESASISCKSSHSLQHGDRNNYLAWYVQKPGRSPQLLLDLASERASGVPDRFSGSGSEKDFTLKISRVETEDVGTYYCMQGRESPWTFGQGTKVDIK	=	40.2
ePGDM5 (antibody, V domains shown) VH: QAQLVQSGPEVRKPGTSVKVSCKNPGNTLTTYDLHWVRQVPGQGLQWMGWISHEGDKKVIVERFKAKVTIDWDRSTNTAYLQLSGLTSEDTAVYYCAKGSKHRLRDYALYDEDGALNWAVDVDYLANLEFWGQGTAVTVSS VL: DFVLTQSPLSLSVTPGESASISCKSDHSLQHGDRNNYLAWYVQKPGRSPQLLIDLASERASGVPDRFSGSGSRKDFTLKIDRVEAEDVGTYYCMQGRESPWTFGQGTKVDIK	=	73
PGDM1400 (antibody, V domains shown) VH: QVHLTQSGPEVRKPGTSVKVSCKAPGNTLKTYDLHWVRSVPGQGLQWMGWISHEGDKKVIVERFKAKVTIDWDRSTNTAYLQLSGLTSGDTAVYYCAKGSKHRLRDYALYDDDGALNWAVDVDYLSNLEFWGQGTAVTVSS VL: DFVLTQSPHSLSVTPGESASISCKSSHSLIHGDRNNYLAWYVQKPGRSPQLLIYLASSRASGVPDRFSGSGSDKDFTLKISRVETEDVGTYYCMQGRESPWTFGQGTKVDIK	>	100
